systemName: T1, human KDR-Fc fusion (R&D Systems #357-KD-050) (human, UniProt P35968 20-764)
T1 construct: bought
T1 sequence (P35968 20-764): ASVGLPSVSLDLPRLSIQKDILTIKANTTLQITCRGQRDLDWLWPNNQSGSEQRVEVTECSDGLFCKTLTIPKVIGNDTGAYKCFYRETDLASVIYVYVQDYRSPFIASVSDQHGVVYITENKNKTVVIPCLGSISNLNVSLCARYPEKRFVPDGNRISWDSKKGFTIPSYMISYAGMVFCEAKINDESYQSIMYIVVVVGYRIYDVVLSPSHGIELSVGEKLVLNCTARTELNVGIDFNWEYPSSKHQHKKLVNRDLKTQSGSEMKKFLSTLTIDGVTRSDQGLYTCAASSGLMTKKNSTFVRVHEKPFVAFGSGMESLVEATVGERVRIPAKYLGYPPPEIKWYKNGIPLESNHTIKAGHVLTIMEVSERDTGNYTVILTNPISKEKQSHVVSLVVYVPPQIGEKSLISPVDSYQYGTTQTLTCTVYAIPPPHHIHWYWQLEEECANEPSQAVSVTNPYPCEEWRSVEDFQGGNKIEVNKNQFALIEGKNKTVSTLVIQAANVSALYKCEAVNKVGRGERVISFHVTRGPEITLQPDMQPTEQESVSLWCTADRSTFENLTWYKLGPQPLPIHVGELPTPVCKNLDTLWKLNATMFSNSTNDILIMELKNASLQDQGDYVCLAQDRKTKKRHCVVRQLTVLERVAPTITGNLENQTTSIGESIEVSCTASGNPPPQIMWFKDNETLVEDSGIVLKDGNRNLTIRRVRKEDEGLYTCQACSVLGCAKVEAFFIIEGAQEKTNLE
testName: fluorescence anisotropy, fluorescein-labeled peptide
Bridge positions count the residues as written; N and C are the ends.
Assign pKd to each entry below.
Answers are plain numbers, as −log10 of the molar value.

| binder | pKd |
| --- | --- |
| Ac-AGANWCEEDWYYCFITGTGGGK-NH2 (disulfide 6-13 (inferred); not fully specified) [SEQ ID NO:271] | 6.51 |
| Ac-GSDHHCYLHNGQWICYPFAPGGGK-NH2 (disulfide 6-15 (inferred); not fully specified) [SEQ ID NO:314] | 6.59 |
| Ac-SGRLDCDKVFSGPYGKVCVSYGSGGGK-NH2 (disulfide 6-18 (inferred); not fully specified) [SEQ ID NO:316] | 5.98 |

Exercise: Find the recorded pKd belonging to Ac-AGWVECWWKSGQCYEFGTGGGK-NH2 (cysteine pairing not given here; also: C-terminal Lys fluorescein-labeled for some assays, unlabeled for others) [SEQ ID NO:266] and report it.
Solution: 5.89
